# key: entry, value: ΔH
Biological target: rAtACBP5 (Arabidopsis thaliana)
Sequence (Q8RWD9 1-648): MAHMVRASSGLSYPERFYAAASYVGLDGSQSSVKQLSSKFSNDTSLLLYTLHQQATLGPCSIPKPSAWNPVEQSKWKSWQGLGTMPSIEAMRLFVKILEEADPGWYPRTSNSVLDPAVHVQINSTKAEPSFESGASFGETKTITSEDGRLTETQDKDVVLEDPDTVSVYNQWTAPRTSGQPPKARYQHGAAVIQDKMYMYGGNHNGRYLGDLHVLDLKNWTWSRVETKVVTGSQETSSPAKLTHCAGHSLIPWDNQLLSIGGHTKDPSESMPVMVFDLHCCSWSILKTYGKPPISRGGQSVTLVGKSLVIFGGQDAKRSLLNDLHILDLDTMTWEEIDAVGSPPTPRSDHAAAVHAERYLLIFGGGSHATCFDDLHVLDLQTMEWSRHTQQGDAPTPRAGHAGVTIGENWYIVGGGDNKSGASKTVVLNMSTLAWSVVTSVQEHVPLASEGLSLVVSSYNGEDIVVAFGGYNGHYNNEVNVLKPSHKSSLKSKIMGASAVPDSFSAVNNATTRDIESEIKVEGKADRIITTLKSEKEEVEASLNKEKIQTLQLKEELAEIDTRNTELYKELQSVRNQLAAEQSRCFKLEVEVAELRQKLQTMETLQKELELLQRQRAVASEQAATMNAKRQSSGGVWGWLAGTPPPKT
Test: ITC of acyl-CoA esters binding to rAtACBP5
Settings: ITC, 30°C, 10 mM sodium phosphate buffer pH 7.0; mean of three±S.D.
Write the quantity with the unit trailing the number.

* CC/C=C\C/C=C\C/C=C\CCCCCCCC(=O)SCCNC(=O)CCNC(=O)[C@H](O)C(C)(C)COP(=O)(O)OP(=O)(O)OC[C@H]1O[C@@H](n2cnc3c(N)ncnc32)[C@H](O)[C@@H]1OP(=O)(O)O | -7.8 kcal/mol
* CCCCCCCC/C=C\CCCCCCCC(=O)SCCNC(=O)CCNC(=O)[C@H](O)C(C)(C)COP(=O)(O)OP(=O)(O)OC[C@H]1O[C@@H](n2cnc3c(N)ncnc32)[C@H](O)[C@@H]1OP(=O)(O)O | -6.2 kcal/mol

Next, consider the following compound.
Q. Entry CCCCCCCCCCCCCCCCCC(=O)SCCNC(=O)CCNC(=O)[C@H](O)C(C)(C)COP(=O)(O)OP(=O)(O)OC[C@H]1O[C@@H](n2cnc3c(N)ncnc32)[C@H](O)[C@@H]1OP(=O)(O)O has what ΔH?
A. -17.4 kcal/mol

====

Each record here notes measured ΔH.
Biological target: rAtACBP6 (Arabidopsis thaliana)
Construct: made in house; host or cells: Escherichia coli
Sequence (P57752 whole entry): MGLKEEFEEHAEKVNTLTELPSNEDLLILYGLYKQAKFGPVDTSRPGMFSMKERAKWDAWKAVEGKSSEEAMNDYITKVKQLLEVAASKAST
Assay: ITC of acyl-CoA esters binding to rAtACBP6
Conditions: ITC, 30°C, 10 mM sodium phosphate buffer pH 7.0; mean of three±S.D.
Write down the numeric answer in kcal/mol and omit the unit.

Consider the reported ΔH for these compounds:
- CCCCCCCCCCCCCCCCCC(=O)SCCNC(=O)CCNC(=O)[C@H](O)C(C)(C)COP(=O)(O)OP(=O)(O)OC[C@H]1O[C@@H](n2cnc3c(N)ncnc32)[C@H](O)[C@@H]1OP(=O)(O)O [18:0]: -12
- CCCCCCCCCCCCCC(=O)SCCNC(=O)CCNC(=O)[C@H](O)C(C)(C)COP(=O)(O)OP(=O)(O)OC[C@H]1O[C@@H](n2cnc3c(N)ncnc32)[C@H](O)[C@@H]1OP(=O)(O)O [14:0]: -11.6
- CCCCCCCCCCCCCCCC(=O)SCCNC(=O)CCNC(=O)[C@H](O)C(C)(C)COP(=O)(O)OP(=O)(O)OC[C@H]1O[C@@H](n2cnc3c(N)ncnc32)[C@H](O)[C@@H]1OP(=O)(O)O [16:0, palmitoyl-CoA]: -13.7

--- query ---
Q. Record request: ΔH value, item CCCCC/C=C\C/C=C\CCCCCCCC(=O)SCCNC(=O)CCNC(=O)[C@H](O)C(C)(C)COP(=O)(O)OP(=O)(O)OC[C@H]1O[C@@H](n2cnc3c(N)ncnc32)[C@H](O)[C@@H]1OP(=O)(O)O [18:2, linoleoyl-CoA]
A. -12.3
